# systemName: T1, M2-2
# T1 construct: also called PD1 mutant M2-2
# experimentNotes: scFv-phage ELISA
assayReadout: OD490
// no unit string in output, number only

Consider the worked cases shown below.
- PD1-51D9 (antibody, V domains shown, scFv-phage in the screening ELISA; whole IgG in the other assays) VH: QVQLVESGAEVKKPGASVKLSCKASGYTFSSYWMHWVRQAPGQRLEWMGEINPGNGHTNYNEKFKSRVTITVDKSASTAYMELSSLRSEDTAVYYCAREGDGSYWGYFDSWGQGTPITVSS VL: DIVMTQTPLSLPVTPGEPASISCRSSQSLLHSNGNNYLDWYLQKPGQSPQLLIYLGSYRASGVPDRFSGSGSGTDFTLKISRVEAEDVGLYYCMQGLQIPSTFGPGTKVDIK: 0.6
- PD1-45D6 (antibody, V domains shown, scFv-phage in the screening ELISA; whole IgG in the other assays) VH: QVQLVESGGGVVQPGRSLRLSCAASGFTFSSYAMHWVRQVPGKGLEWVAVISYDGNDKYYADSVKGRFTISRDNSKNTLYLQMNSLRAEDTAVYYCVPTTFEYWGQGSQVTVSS VL: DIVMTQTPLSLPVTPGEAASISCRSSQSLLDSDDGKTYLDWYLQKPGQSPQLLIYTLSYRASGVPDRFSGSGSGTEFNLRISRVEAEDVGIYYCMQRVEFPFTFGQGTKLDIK: 3.8

Recorded OD490 for PD1-29H3 (antibody, V domains shown, scFv-phage in the screening ELISA; later whole IgG) VH: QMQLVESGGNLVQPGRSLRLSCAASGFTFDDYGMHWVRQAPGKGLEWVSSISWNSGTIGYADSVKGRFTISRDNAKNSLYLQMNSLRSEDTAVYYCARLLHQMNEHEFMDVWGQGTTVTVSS VL: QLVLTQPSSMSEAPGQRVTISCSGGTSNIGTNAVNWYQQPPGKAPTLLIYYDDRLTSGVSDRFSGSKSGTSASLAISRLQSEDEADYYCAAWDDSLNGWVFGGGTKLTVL , please?
3.2

Item under review: PD1-44B5 (antibody, V domains shown, scFv-phage in the screening ELISA; later whole IgG) VH: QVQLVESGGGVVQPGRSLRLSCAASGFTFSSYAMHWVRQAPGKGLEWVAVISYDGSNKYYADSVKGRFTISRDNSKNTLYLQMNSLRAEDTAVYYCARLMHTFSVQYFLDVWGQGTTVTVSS VL: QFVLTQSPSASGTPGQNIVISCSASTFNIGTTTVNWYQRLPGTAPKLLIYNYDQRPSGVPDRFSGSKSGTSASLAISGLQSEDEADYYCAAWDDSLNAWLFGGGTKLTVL . Reported OD490?
3.7
